- tgt: recombinant ATX-HA (Homo sapiens, UniProt Q13822)
- Construct: HA
- protocol text: Autotaxin assay (FS-3 hydrolysis)
- Format: biochemical
- measurement conditions: 10.0 μM; FS-3 substrate; preliminary single-dose screen; read-out: Inhibition (%) of autotaxin (ATX) phosphodiesterase activity
property measured: inhibition at 10 µM (%)
Give just the numeric value; % need not be written.

[[record]]
molecule = "CCCCCCCC/C=C\\CCCCCCCC(=O)OC[C@@H](O)CC(Cl)P(=O)(O)O (mixture of isomers) [Compound 18a]"
output_unit = "%"
obs_value = 92.5


Here is another molecule to look at.
inhibition at 10 µM for recombinant ATX-HA (Homo sapiens, UniProt Q13822) with input CCCCCCCCCCCCCCCC(=O)OC[C@@H](O)CC(Cl)P(=O)(O)O (mixture of isomers) [Compound 18b] equals 83
